The compounds listed here are annotated with their inhibition at 10 µM.
Molecular target: CDK19/Cyclin C (Homo sapiens, UniProt Q9BWU1)
Sequence (Q9BWU1 whole entry): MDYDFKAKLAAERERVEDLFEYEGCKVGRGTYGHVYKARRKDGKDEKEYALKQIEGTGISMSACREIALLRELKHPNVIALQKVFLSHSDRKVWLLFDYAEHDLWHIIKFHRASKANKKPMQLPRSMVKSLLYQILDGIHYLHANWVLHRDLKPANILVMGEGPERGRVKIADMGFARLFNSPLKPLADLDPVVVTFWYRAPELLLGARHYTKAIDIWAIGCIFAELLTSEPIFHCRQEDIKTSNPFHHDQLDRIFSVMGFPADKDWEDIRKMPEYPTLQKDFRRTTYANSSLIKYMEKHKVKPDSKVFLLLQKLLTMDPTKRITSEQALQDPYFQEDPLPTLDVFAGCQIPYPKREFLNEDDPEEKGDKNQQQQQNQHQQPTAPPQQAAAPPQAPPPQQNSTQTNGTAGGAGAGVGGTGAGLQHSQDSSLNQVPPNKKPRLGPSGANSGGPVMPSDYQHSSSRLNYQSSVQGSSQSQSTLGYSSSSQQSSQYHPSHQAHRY
Sequence (P24863 whole entry partner): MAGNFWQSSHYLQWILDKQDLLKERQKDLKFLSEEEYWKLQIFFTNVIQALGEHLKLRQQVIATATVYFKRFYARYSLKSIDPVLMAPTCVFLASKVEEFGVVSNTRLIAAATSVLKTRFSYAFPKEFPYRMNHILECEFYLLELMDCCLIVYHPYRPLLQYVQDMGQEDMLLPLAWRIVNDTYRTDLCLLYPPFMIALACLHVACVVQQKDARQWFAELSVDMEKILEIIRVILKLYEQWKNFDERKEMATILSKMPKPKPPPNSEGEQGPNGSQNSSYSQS
Experiment: NanoBRET live-cell target engagement, NanoLuc-CDK19/Cyclin C in HEK-293
Conditions: read-out: Inhibition at 10µM (%), CDK19/C; experiment 1
Assay Metric: inhibition at 10 µM (%)

>>> measured_value("CC(C)c1cnn2c(NCc3ccccc3)cc(NC[C@H]3CCNC[C@@H]3O)nc12 [CT7001]")
16
>>> measured_value("COc1ccccc1-c1cc(Nc2cccc(CS(N)(=O)=O)c2)ncn1 [LDC000067]")
16.6
>>> measured_value("CNC(=O)c1nn(C)c2c1C(C)(C)Cc1cnc(Nc3ccc(N4CCN(C)CC4)cc3)nc1-2 [Milciclib]")
44.9
>>> measured_value("COc1ccc(F)cc1-c1cc(NC(=O)C2CCCNC2)ncc1Cl (centres unmarked) [CDK inhibitor 2]")
75.1
>>> measured_value("N#CCNC(=O)c1ccc(-c2ccnc(Nc3ccc(N4CCOCC4)cc3)n2)cc1 [Momelotinib]")
10.6
>>> measured_value("NS(=O)(=O)c1ccc(Nc2nc(OCC3CCCCC3)c3nc[nH]c3n2)cc1 [NU6102]")
21
>>> measured_value("CN1CC[C@H](c2c(O)cc(O)c3c(=O)cc(-c4ccccc4Cl)oc23)[C@H](O)C1 [Flavopiridol]")
98
>>> measured_value("Cn1cc(-c2ccc(-c3cncc(Cl)c3N3CCC4(CCNC4=O)CC3)cc2)cn1 [CCT251545]")
97.3
>>> measured_value("CC(C)(C)c1nc(-c2cccc(NS(=O)(=O)c3c(F)cccc3F)c2F)c(-c2ccnc(N)n2)s1 [Dabrafenib]")
0.8
>>> measured_value("CCc1cnn2c(NCc3ccc[n+]([O-])c3)cc(N3CCCC[C@H]3CCO)nc12 [Dinaciclib]")
46.2
>>> measured_value("CC(C)N1CCN(c2ccc(Nc3ncc4cc5n(c4n3)C3(CCCCC3)CNC5=O)nc2)CC1 [Lerociclib]")
7.9
>>> measured_value("CN1CCN(c2ccc(Nc3ncc4cc(C#N)c(=O)n(C5CCCC5)c4n3)cc2)CC1 [ON123300]")
6.6
>>> measured_value("COC1CN(C(=O)c2ccc3c(N)ncc(-c4ccc(-c5cnn(C)c5)cc4)c3n2)C1 [CCT251545 analog]")
93.4
>>> measured_value("CN1CCN(Cc2ccc(NC(=O)Nc3ccc(Oc4ccnc(N)n4)cc3)cc2C(F)(F)F)CC1 [K03861]")
95.5

###

Target: CDK15/Cyclin Y (Homo sapiens, UniProt Q96Q40)
Sequence (Q96Q40 whole entry): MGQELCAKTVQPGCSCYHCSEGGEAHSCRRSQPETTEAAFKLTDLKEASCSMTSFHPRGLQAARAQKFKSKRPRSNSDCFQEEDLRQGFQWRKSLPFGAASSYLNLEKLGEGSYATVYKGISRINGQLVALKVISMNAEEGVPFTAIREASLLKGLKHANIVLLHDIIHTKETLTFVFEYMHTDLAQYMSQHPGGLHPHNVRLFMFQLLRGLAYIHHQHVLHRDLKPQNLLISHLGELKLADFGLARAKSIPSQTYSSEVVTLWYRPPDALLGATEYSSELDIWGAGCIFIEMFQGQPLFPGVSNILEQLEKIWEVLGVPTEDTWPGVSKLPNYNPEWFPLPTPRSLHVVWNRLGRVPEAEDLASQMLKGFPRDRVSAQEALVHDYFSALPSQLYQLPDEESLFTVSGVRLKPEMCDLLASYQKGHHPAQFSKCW
Sequence (Q8ND76 whole entry partner): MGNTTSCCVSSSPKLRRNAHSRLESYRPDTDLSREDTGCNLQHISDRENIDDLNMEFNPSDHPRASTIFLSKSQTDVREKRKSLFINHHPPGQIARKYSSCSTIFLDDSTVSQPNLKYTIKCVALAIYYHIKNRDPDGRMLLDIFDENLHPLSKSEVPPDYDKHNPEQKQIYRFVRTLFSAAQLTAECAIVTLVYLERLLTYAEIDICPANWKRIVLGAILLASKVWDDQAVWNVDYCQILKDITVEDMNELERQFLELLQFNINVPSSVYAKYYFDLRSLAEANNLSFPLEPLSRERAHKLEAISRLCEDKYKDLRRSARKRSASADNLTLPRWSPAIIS
Assay: NanoBRET live-cell target engagement, NanoLuc-CDK15/Cyclin Y in HEK-293
Type: binding
Settings: CDK15/Y; n=3 average ± SEM, n=2 average to 2 significant figures; read-out: IC50 (nM) Average*
Assay Metric: IC50

>>> measured_value("CNC1CCN(C(=O)c2ccc(Nc3ncc(F)c(-c4cnc(C)n4C(C)C)n3)cc2)C1 (stereo not drawn)")
"300 nM"
>>> measured_value("C[C@H]1CC[C@H](n2c3cnccc3c3cnc(Nc4ccc5c(n4)CCN(C(=O)CO)C5)nc32)CC1")
"820 nM"
>>> measured_value("CC(C)c1cnn2c(NCc3ccccc3)cc(N[C@@H](CO)[C@H](O)CO)nc12")
"870 nM"

###

Biological target: CDK18/Cyclin Y (Homo sapiens, UniProt Q07002)
Sequence (Q07002 whole entry): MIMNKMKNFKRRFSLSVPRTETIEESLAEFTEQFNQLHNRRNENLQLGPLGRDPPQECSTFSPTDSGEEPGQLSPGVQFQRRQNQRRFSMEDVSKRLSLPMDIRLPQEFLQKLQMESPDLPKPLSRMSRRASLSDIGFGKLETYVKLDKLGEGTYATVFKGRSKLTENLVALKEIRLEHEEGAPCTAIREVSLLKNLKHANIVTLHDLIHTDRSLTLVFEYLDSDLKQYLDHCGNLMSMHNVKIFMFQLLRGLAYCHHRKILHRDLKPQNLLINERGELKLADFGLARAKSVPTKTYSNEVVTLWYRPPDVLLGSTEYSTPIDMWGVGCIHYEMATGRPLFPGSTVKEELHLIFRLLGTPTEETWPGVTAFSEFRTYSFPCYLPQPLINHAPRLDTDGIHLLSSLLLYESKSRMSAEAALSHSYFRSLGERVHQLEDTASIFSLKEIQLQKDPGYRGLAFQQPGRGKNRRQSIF
Sequence (Q8ND76 whole entry partner): as the sequence (Q8ND76 whole entry partner) above
Assay: NanoBRET live-cell target engagement, CDK18-NanoLuc/Cyclin Y in HEK-293
Type: binding
Settings: CDK18/Y; 10µM; average of replicates; read-out: Inhibition at 10µM (%) Average
Assay Metric: inhibition at 10 µM (%)

>>> measured_value("CCCCOc1c(C(=O)c2c(F)cc(C)cc2F)c[nH]c2nncc1-2 [BMS-265246]")
89.2
>>> measured_value("COc1cc(F)ccc1-c1cc(Nc2cc(CS(C)(=N)=O)ccn2)ncc1F (centres unmarked) [BAY-1251152]")
46.2
>>> measured_value("COc1cc(F)ccc1-c1ncnc(Nc2cccc(C[S@](C)(=N)=O)c2)n1 [Atuveciclib]")
19.9
>>> measured_value("Cc1ncc(-c2ccnc(Nc3ccc(S(C)(=O)=O)cc3)n2)n1C(C)C [AZD5438]")
90
>>> measured_value("CCN1CCN(Cc2ccc(Nc3ncc(F)c(-c4cc(F)c5nc(C)n(C(C)C)c5c4)n3)nc2)CC1 [Abemaciclib]")
74.8

Reference source for all entries: paper PMC7265341
